Recorded values, source patent EP1257544B1.

- Test system: Dissociated VM cells
- assay-protocol: Neuroprotection Assay (NMDA-induced neuroexcitotoxic injury, high affinity 3H-dopamine uptake)
- Type: cell-based, Sprague-Dawley rat
- experimental-parameters: embryonic day 15 rat ventral mesencephalic cultures, NMDA (100-400 µM) for 20 hours
Counter-ions that a name gives are not always drawn.
observed-property: EC50

stdin: GET /values?readout=EC50&item= `O=C([C@@H]1CCCCN1Cc1ccccc1)N1CCN(C(c2ccccc2)c2ccccc2)CC1`
stdout: < 100 nM

stdin: // returns reported EC50 for input `CC(C)CN1CCCC[C@H]1C(=O)N1CCN(C(c2ccc(F)cc2)c2ccc(F)cc2)CC1`
stdout: > 500 nM

stdin: Any idea what its EC50 is? The molecule is `COC(=O)CO[C@@H]1C[C@@H](C(=O)N2CCC(Cc3ccccc3)CC2)N(Cc2ccccc2)C1`
stdout: > 500 nM

stdin: Which EC50 is reported for this molecule? `O=C(C1CCN(CC2CC2)CC1)N1CCN(c2ccc(F)cc2)CC1`
stdout: < 100 nM

stdin: Param item = `CCN1CCCC[C@@H]1C(=O)N1CCN(C(c2ccc(F)cc2)c2ccc(F)cc2)CC1` ; retrieve measured EC50.
stdout: > 500 nM

stdin: Which EC50 reading was recorded for the molecule `CCN1CCCC[C@H]1C(=O)N1CCN(Cc2ccc(F)cc2)CC1` ?
stdout: 100 to 500 nM

stdin: For `CN1CCC(C(=O)N2CCC(Cc3ccccc3)CC2)CC1` , what is its reported EC50?
stdout: 100 to 500 nM

stdin: Give the measured EC50 of `CCN1CCCC[C@H]1CN1CCN(C(c2ccccc2)c2ccccc2)CC1` .
stdout: < 100 nM

stdin: // returns reported EC50 for input O=C([C@@H]1CCCN1CCCc1ccccc1)N1CCC(Cc2ccccc2)CC1 [Compound 59, hydrochloride]
stdout: 100 to 500 nM

stdin: What does the data say about its EC50? Entry: CCN1CCCC[C@H]1C(=O)N1CCN(S(=O)(=O)c2ccccc2)CC1 [Compound 80, hydrochloride]
stdout: > 500 nM

stdin: Param item = CCN1CCC[C@H]1C(=O)N1CCC(Cc2ccccc2)CC1 [Compound 53, hydrochloride] ; retrieve measured EC50.
stdout: 100 to 500 nM

stdin: Entry O=C([C@@H]1CCCN1Cc1ccccc1)N1CCC(Oc2ccc(F)cc2)CC1 [Compound 48, hydrochloride] has what EC50?
stdout: < 100 nM

stdin: Can you share its EC50? I mean this molecule: O=C([C@@H]1CCCN1Cc1ccccc1)N1CCC(=Cc2ccc(F)cc2)CC1 [Compound 85, hydrochloride]
stdout: < 100 nM

stdin: Record request: EC50 value, item `C=CCN1CCC(C(=O)N2CCC(Cc3ccc(F)cc3)CC2)CC1`
stdout: > 500 nM

stdin: // lookup EC50 for CCN1CCCC[C@H]1C(=O)N1CCN(Cc2ccc(Cl)c(Cl)c2)CC1 [Compound 69, dihydrochloride]
stdout: < 100 nM

stdin: Fill in: EC50 of `O=C([C@@H]1CCCCN1Cc1ccc(F)cc1)N1CCN(C(c2ccc(F)cc2)c2ccc(F)cc2)CC1` is ___
stdout: 100 to 500 nM

stdin: Entry `O=C(C1CCN(Cc2ccccc2)CC1)N1CCN(c2ccc(F)cc2)CC1` has what EC50?
stdout: 100 to 500 nM

stdin: Which EC50 is reported for this molecule? COc1ccc(CN2CCCC[C@H]2C(=O)N2CCN(C(c3ccccc3)c3ccccc3)CC2)cc1 [Compound 60, dihydrochloride]
stdout: < 100 nM

stdin: Look up EC50: CCN1CCCC[C@H]1C(=O)N1CCC(Cc2ccccc2)C1 (stereo partly drawn)
stdout: 100 to 500 nM

stdin: Record request: EC50 value, item CN1CCCC(C(=O)N2CCC(Cc3ccc(F)cc3)CC2)C1 (stereo not drawn) [Compound 90, hydrochloride]
stdout: < 100 nM

stdin: So what's the measured EC50 for this one? `CCN1CCC(C(=O)N2CCN(c3ccc(F)cc3)CC2)CC1`
stdout: 100 to 500 nM

stdin: State the recorded EC50 for this entry: CCN1CCCC[C@H]1C(=O)N1CCN(CCc2ccccc2)CC1 [Compound 74, dihydrochloride]
stdout: > 500 nM

stdin: Need EC50 of `CC(C)=CCN1CCC(C(=O)N2CCC(Cc3ccc(F)cc3)CC2)CC1` , thanks.
stdout: < 100 nM

stdin: Report EC50 for `CC(C)=CCN1CCC(C(=O)N2CCN(c3ccc(F)cc3)CC2)CC1` please.
stdout: < 100 nM

stdin: Given the molecule CCN1CCCC[C@H]1C(=O)N1CCC(Cc2ccc(F)cc2)CC1 [Compound 47, hydrochloride] , what is its reported EC50?
stdout: < 100 nM

stdin: For CCN1CCCC[C@H]1C(=O)N1CCN(Cc2ccncc2)CC1 [Compound 37, trihydrochloride] , what is its reported EC50?
stdout: > 500 nM

stdin: GET /values?readout=EC50&item= CCN1CCCC[C@H]1C(=O)N1CCC(=Cc2ccc(F)cc2)CC1 [Compound 84, hydrochloride]
stdout: < 100 nM

stdin: So what's the measured EC50 for this one? `O=C(C1CCN(C/C=C/c2ccccc2)CC1)N1CCN(c2ccc(F)cc2)CC1`
stdout: 100 to 500 nM

stdin: Any idea what its EC50 is? The molecule is CCN1CCCC[C@H]1C(=O)N1CCN(Cc2cccnc2)CC1 [Compound 36, trihydrochloride]
stdout: > 500 nM

stdin: Can you share its EC50? I mean this molecule: CCN1CCCC[C@H]1C(=O)N1CCN(Cc2ccccn2)CC1 [Compound 38, trihydrochloride]
stdout: > 500 nM

stdin: For the molecule `CO[C@@H]1C[C@@H](C(=O)N2CCC(Cc3ccccc3)CC2)N(Cc2ccccc2)C1` , what EC50 is on record?
stdout: > 500 nM

stdin: Report EC50 for O=C([C@H]1CCCN1Cc1ccccc1)N1CCC(Cc2ccccc2)CC1 [Compound 55, hydrochloride] please.
stdout: 100 to 500 nM

stdin: Data request, read-out EC50, for O=C(C1CC2CCN1CC2)N1CCC(Cc2ccc(F)cc2)CC1 (stereo not drawn) [Compound 88, hydrochloride]
stdout: 100 to 500 nM
